Target: T1, FZD4 cysteine-rich domain (CRD), MYC-tagged and GPI-anchored on CHO cells (human, UniProt Q9ULV1 42-167, GPI anchor)
T1 construct: also called FZD4 CRD; CHO-myc-FZDGPI; not shown: MYC tag and GPI anchor signal
T1 sequence: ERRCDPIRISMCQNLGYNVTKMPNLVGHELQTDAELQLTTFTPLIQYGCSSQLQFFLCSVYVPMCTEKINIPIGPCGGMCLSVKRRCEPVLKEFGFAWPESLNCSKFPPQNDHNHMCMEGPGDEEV
Experiment: flow cytometry, CHO-CRD cells;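 also: flow cytometry of Fab binding to CHO cells overexpressing a Frizzled CRD, with binding defined as median fluorescence over twice that of CHO cells lacking any Frizzled CRD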
observable: median fluorescence

# input Please report the measured median fluorescence for Fab-2936 (Fab, V domains shown, Fab; also called Fv-2936) VH: EVQLVESGGGLVQPGGSLRLSCAASGFNISYYYMHWVRQAPGKGLEWVASIYSSSGSTSYADSVKGRFTISADTSKNTAYLQMNSLRAEDTAVYYCARAAMDYWGQGTLVTVSS VL: DIQMTQSPSSLSASVGDRVTITCRASQSVSSAVAWYQQKPGKAPKLLIYSASSLYSGVPSRFSGSRSGTDFTLTISSLQPEDFATYYCQQWYAASLITFGQGTKVEIK
# output 3.65
